target: cAMP and cAMP-inhibited cGMP 3',5'-cyclic phosphodiesterase 10A (Homo sapiens); assay: PDE10A assay
outcome.measure: IC50 (nM)
Entry rule: numbers only, all in nM.

{"molecule": "Cn1ncc(C(=O)N2CCCC2)c1C(=O)Nc1ccn2nc(N3CCOCC3)nc2c1 [Roche-Dataset for PDE10A, Compound 402]", "test.system": "cAMP and cAMP-inhibited cGMP 3',5'-cyclic phosphodiesterase 10A (Homo sapiens)", "IC50 (nM)": 3.25}
{"molecule": "Cc1ncc(C)n2nc(CCc3nc(N4CC5CC4C5)nn3C)nc12 [Roche-Dataset for PDE10A, Compound 524]", "test.system": "cAMP and cAMP-inhibited cGMP 3',5'-cyclic phosphodiesterase 10A (Homo sapiens)", "IC50 (nM)": 858}
{"molecule": "Cn1ncc(C(=O)N2CCOCC2)c1C(=O)N[C@H]1CCn2cc(-c3ccc(F)cc3)nc2C1 [Roche-Dataset for PDE10A, Compound 938]", "test.system": "cAMP and cAMP-inhibited cGMP 3',5'-cyclic phosphodiesterase 10A (Homo sapiens)", "IC50 (nM)": 624}
{"molecule": "Cc1cnc(C)n2nc(/C=C/c3ncnn3C)nc12 [Roche-Dataset for PDE10A, Compound 1142]", "test.system": "cAMP and cAMP-inhibited cGMP 3',5'-cyclic phosphodiesterase 10A (Homo sapiens)", "IC50 (nM)": 3910}
{"molecule": "Cc1c(Cl)cc(Cl)c2nc(CCc3cn4cccnc4n3)nn12 [Roche-Dataset for PDE10A, Compound 785]", "test.system": "cAMP and cAMP-inhibited cGMP 3',5'-cyclic phosphodiesterase 10A (Homo sapiens)", "IC50 (nM)": 360}

Challenge: Given the entry Cn1ncc(C(=O)N2CC(F)C2)c1C(=O)Nc1ccn2nc(-c3cccnc3)nc2c1 [Roche-Dataset for PDE10A, Compound 337] , what IC50 was observed with cAMP and cAMP-inhibited cGMP 3',5'-cyclic phosphodiesterase 10A (Homo sapiens)?
Response given: 1.16

Challenge: Checklist item: IC50 tested on cAMP and cAMP-inhibited cGMP 3',5'-cyclic phosphodiesterase 10A (Homo sapiens), entry O=C(N[C@]12C[C@H]3C[C@H](C[C@H](C3)C1)C2)c1nc(C2CC2)cnc1Nc1cncnc1 [Roche-Dataset for PDE10A, Compound 1143] , value?
Response given: 788

Challenge: So what IC50 did CC(=O)c1ccc(NC(=O)c2nc(C3CC3)ccc2Nc2cncnc2)s1 [Roche-Dataset for PDE10A, Compound 974] get with cAMP and cAMP-inhibited cGMP 3',5'-cyclic phosphodiesterase 10A (Homo sapiens)?
Response given: 36

###

molecular target: cAMP and cAMP-inhibited cGMP 3',5'-cyclic phosphodiesterase 10A (Homo sapiens)
Binary label based on IC50 with cut-off 3 nM: below gives fulfilled, not below gives not fulfilled.

Here's what some known entries look like.
{"compound": "O=C(Nc1cccc(S(=O)(=O)CCO)c1)c1nc(C2CC2)cnc1Nc1cncnc1 [Roche-Dataset for PDE10A, Compound 734]", "class.assignment": "not fulfilled"}
{"compound": "O=C(NCC(F)(F)F)c1nc(C2CC2)cnc1Nc1cncnc1 [Roche-Dataset for PDE10A, Compound 1124]", "class.assignment": "not fulfilled"}
{"compound": "COc1ccccc1-c1cn2c(n1)C[C@H](NC(=O)c1c(C(=O)N(C)C3CC3)cnn1C)CC2 [Roche-Dataset for PDE10A, Compound 278]", "class.assignment": "not fulfilled"}
{"compound": "O=C(Nc1cc(-c2ccccn2)nn1CC1CCCCC1)c1nc(C2CC2)ccc1Nc1cncnc1 [US8470820, 32]", "class.assignment": "fulfilled"}
{"compound": "Cc1c(Cl)cc(C(F)(F)F)c2nc(/C=C/c3nc(N4CCCC4)nn3C)nn12 [Roche-Dataset for PDE10A, Compound 154]", "class.assignment": "fulfilled"}
{"compound": "O=C(Nc1ccnn1-c1ccccc1)c1nc(C2CC2)ccc1Nc1cncnc1 [Roche-Dataset for PDE10A, Compound 507]", "class.assignment": "fulfilled"}

Challenge: Please indicate whether the reported IC50 of CNC(=O)c1cc(F)ccc1NC(=O)c1nc(C2CC2)cnc1Nc1cncnc1 [US8703768, 312] is strictly below 3 nM.
Response given: fulfilled

Challenge: Bench note: check whether O=C(N[C@@H]1C[C@H]2CC[C@@H]1C2)c1nc(C2CC2)cnc1Nc1cncnc1 [Roche-Dataset for PDE10A, Compound 1126] shows IC50 below 3 nM
Response given: not fulfilled

Challenge: Is it true that IC50 reported for CCCn1nc(-c2ccccn2)cc1NC(=O)c1nc(C2CC2)ccc1Nc1cncnc1 [US8470820, 23] is less than 3 nM?
Response given: fulfilled

Challenge: Is 3 nM strictly greater than the compound's reported IC50? compound: CC(C)NC(=O)c1nc(C2CC2)cnc1OCc1nc(-c2ccccc2)cn1C [Roche-Dataset for PDE10A, Compound 252]
Response given: not fulfilled

Challenge: Just wondering, is IC50 of CN(C(=O)c1cnn(C)c1C(=O)N[C@@H]1CCn2cc(-c3ccccc3OC(F)F)nc2C1)C1CC1 [Roche-Dataset for PDE10A, Compound 192] below 3 nM?
Response given: not fulfilled

Challenge: Decide: IC50 of CNC(=O)c1c(NC(=O)c2nc(Cl)c(OC)nc2Nc2cncnc2)cnn1C [Roche-Dataset for PDE10A, Compound 1152] strictly below 3 nM?
Response given: not fulfilled

Challenge: Does Cn1nc(-c2ccccn2)cc1NC(=O)c1nc(C2CC2)ccc1Nc1cncnc1 [US8470820, 8] have IC50 strictly under 3 nM?
Response given: not fulfilled

Challenge: # check: IC50 < 3 nM for CC1(CNC(=O)c2nc(C3CC3)cnc2Nc2cncnc2)COC1 [Roche-Dataset for PDE10A, Compound 1092]
Response given: not fulfilled

###

target: cAMP and cAMP-inhibited cGMP 3',5'-cyclic phosphodiesterase 10A (Homo sapiens)
The following molecules are listed with their measured pIC50 values.
The value called pIC50 is obtained by taking minus log10 of the concentration in mol/L.

{"molecule": "Cn1cc(-c2ccccc2)nc1CCc1nc2ccccc2c(=O)[nH]1 [Roche-Dataset for PDE10A, Compound 170]", "pIC50": 7.22}
{"molecule": "Cc1cc(Cl)c(C)n2nc(/C=C/c3nc(N4CCCC4)nn3C)nc12 [Roche-Dataset for PDE10A, Compound 300]", "pIC50": 9.48}
{"molecule": "CC(C)n1ccc(NC(=O)c2c(C(=O)N3CCC3)cnn2C)n1 [Roche-Dataset for PDE10A, Compound 1118]", "pIC50": 5.74}

Proceeding to the next molecule to report its pIC50.
Challenge: Query for cAMP and cAMP-inhibited cGMP 3',5'-cyclic phosphodiesterase 10A (Homo sapiens): what pIC50 does the record show for CCN(C)C(=O)c1cnn(C)c1C(=O)Nc1ccn2cc(-c3cccc(OCCCF)c3)nc2n1 [Roche-Dataset for PDE10A, Compound 1] ?
Response given: 8.22

###

Entries below carry reported pIC50 on cAMP and cAMP-inhibited cGMP 3',5'-cyclic phosphodiesterase 10A (Homo sapiens).
Units for pIC50: none; it is -log10 of a concentration expressed in mol/L.

Solved entries:
{"molecule": "O=C(Nc1ccn2nc(-c3ccccc3)nc2c1)c1cc(Cl)nc(NC2CC2)c1 [Roche-Dataset for PDE10A, Compound 101]", "pIC50": 8.21}
{"molecule": "CN(C)c1nc2cc(NC(=O)c3c(C(=O)N4CCC4)cnn3C)ccc2s1 [Roche-Dataset for PDE10A, Compound 461]", "pIC50": 8.51}
{"molecule": "CN(C)CCn1nc(-c2ccccn2)cc1NC(=O)c1nc(C2CC2)ccc1Nc1cncnc1", "pIC50": 8.98}

Now take the following molecule into account.
Challenge: Write down the reported pIC50 of CC(C)(O)CNC(=O)c1cc(C#N)ccc1NC(=O)c1nc(C2CC2)cnc1Nc1cncnc1 , test system: cAMP and cAMP-inhibited cGMP 3',5'-cyclic phosphodiesterase 10A (Homo sapiens).
Response given: 9.15

###

molecular target: cAMP and cAMP-inhibited cGMP 3',5'-cyclic phosphodiesterase 10A (Homo sapiens)
outcome.measure: pIC50
Note: pIC50 values are expressed as the negative base-10 logarithm of concentration in M.

Solved entries (count: 7):
{"molecule": "Cn1ccc(NC(=O)c2nc(C3CC3)ccc2Nc2cncnc2)n1 [Roche-Dataset for PDE10A, Compound 883]", "experimental.value": 6.93}
{"molecule": "CC(C)OC(=O)c1c(C(=O)Nc2ccn3nc(-c4ccccc4)nc3c2)cnn1C [Roche-Dataset for PDE10A, Compound 428]", "experimental.value": 7.82}
{"molecule": "O=C(NCCC1CCOCC1)c1nc(C2CC2)cnc1Nc1cncnc1 [Roche-Dataset for PDE10A, Compound 915]", "experimental.value": 5.83}
{"molecule": "CCOC(=O)c1cnn(C)c1C(=O)Nc1ccc2nc(N3CCOCC3)nn2c1 [Roche-Dataset for PDE10A, Compound 1117]", "experimental.value": 5.70}
{"molecule": "Cn1ncc(C(=O)N2CCC2)c1C(=O)Nc1ccn2nc(-c3ccccc3OCCCF)nc2c1 [Roche-Dataset for PDE10A, Compound 11]", "experimental.value": 9.52}
{"molecule": "Cc1ncc(C)n2nc(CCc3nc(-c4cn[nH]c4)nn3C)nc12 [Roche-Dataset for PDE10A, Compound 961]", "experimental.value": 7.06}
{"molecule": "Cc1nn2ccc(CCc3nc(-c4ccccc4)cn3C)nc2c1C", "experimental.value": 8.31}

Turning now to a further molecule:
Challenge: Param readout= pIC50; system= cAMP and cAMP-inhibited cGMP 3',5'-cyclic phosphodiesterase 10A (Homo sapiens); entry= O=C(Nc1ccncc1C(F)(F)F)c1ccc2cc(-c3ccccc3)nn2c1 [Roche-Dataset for PDE10A, Compound 367] ; returns value.
Response given: 5.97
